procedure-summary: reversal of MRP1-mediated doxorubicin resistance, pilot screen, H69AR cells, doxorubicin co-treatment (AID 601)
conditions: H69AR cells + 2 uM doxorubicin, CellTiter-Glo, 72 h; at 10 µM; stronger effect = higher value

- compound: "Cc1cc(C)c(S(=O)(=O)N(C)CC(N)=O)c(C)c1"
  differential viability (reversal) [%]: -12.6
- compound: "CCCN(CCC)C(=O)CC(c1ccc(F)cc1)c1ccco1 (centres undefined)"
  differential viability (reversal) [%]: -6.06
- compound: "Cc1ccc(F)cc1NC(=O)c1cccc2nccnc12"
  differential viability (reversal) [%]: 6.75
- compound: "Cc1ccc(C2=Nc3ccccc3NC(C)(c3ccc(C)o3)C2)o1 (centres undefined)"
  differential viability (reversal) [%]: -10.7

###

procedure-summary: SK-BR-3 cell growth inhibitors, pilot screen, 24 h, human (AID 572);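 further: compound exposure lasted between 18 and 24 h rather than exactly 24 h; 100% = carrier-treated control wells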
conditions: SK-BR-3 viability, CellTiter-Glo luminescence, at 10 µM, stronger effect = lower value

- compound: "CN1CCN(S(=O)(=O)c2ccc(NC(=O)Nc3cccc(Cl)c3)cc2)CC1"
  viability / %: 96
- compound: "CC(C)COC(=O)C(C#N)c1nc2ccccc2nc1N1CCN(Cc2ccccc2)CC1 (stereo not drawn)"
  viability / %: 76
- compound: "CC(CCc1ccccc1)NC(=O)CSc1nc(N)cc(N)n1 (stereo not drawn)"
  viability / %: 114

###

procedure-summary: reversal of MRP1-mediated doxorubicin resistance, pilot screen, H69AR cells, doxorubicin co-treatment (AID 601)
conditions: H69AR cells + 2 uM doxorubicin, CellTiter-Glo, 72 h; measured here: viability with 2 uM doxorubicin; at 10 µM; stronger effect = lower value
// map viability onto a label; ranges low bracket: < 80%; middle bracket: ≥ 80% and < 90%; high bracket: ≥ 90%

- molecule: "CC1Cc2ccccc2N1C(=O)c1cccnc1 (stereo not drawn)"
  class-name: "high bracket"
- molecule: "COCCN(CCOC)C(=O)CCn1c(=O)oc2ccccc21"
  class-name: "high bracket"
- molecule: "COc1ccc2c(c1)C(=O)N(c1ccccc1OC)C(=O)C2"
  class-name: "high bracket"
- molecule: "O=C(Nc1sccc1C(=O)NCc1ccco1)c1cccnc1"
  class-name: "middle bracket"
- molecule: "Cc1ccc(C)c(S(=O)(=O)C(C#N)c2nc3ccccc3nc2N2CC(C)OC(C)C2)c1 (stereo not drawn)"
  class-name: "low bracket"
- molecule: "Cc1ccc(Cn2nnc(C(=O)Nc3cccc(C)c3C)c2N)cc1"
  class-name: "high bracket"
- molecule: "OCC(O)CN1CCN(c2ccccc2)CC1 (stereo not drawn)"
  class-name: "high bracket"
- molecule: "Cc1cc(NS(=O)(=O)c2ccc(NC(=O)Nc3ccc4c(c3)OCO4)cc2)no1"
  class-name: "high bracket"
- molecule: "CCOC(=O)C1=C(N)c2ccccc2CC1C(C)C (stereo not drawn)"
  class-name: "low bracket"
- molecule: "CCOC(=O)c1[nH]c2cc(OC)c(OC)cc2c1NC(=O)C(C)N1CCN(Cc2ccccc2)CC1 (stereo not drawn)"
  class-name: "low bracket"
- molecule: "Cc1ccc(N2CCN(CCc3nc4cc(NS(C)(=O)=O)ccc4n3C)CC2)cc1"
  class-name: "middle bracket"
- molecule: "Cc1cccc2cc(C#N)c(NCCNC(=O)NC3CCCCC3)nc12"
  class-name: "middle bracket"
- molecule: "N#Cc1c(N2CCCC2)nc(N)c2c(N)nc(N3CCCC3)cc12"
  class-name: "low bracket"
- molecule: "C[C@@H]1C[C@H]2[C@@H]3C[C@H](F)C4=CC(=O)C=C[C@]4(C)[C@@]3(F)[C@@H](O)C[C@]2(C)[C@@]1(O)C(=O)COC(=O)C(C)(C)C"
  class-name: "middle bracket"
- molecule: "CC(=O)c1c(C)[nH]c(C(=O)NCc2cccs2)c1C"
  class-name: "middle bracket"
- molecule: "CN=C(C)C1=C(O)C(C(=O)OC)C(C)(C)CC1=O (stereo not drawn)"
  class-name: "high bracket"
- molecule: "CS(=O)(=O)N1CCN(C(=O)c2ccc(-c3ccccc3)cc2)CC1"
  class-name: "middle bracket"

Reference source for all entries: PubChem BioAssay
